Data origin: paper PMC6828636

Biological target: UniProt P11712
Sequence (P11712 whole entry): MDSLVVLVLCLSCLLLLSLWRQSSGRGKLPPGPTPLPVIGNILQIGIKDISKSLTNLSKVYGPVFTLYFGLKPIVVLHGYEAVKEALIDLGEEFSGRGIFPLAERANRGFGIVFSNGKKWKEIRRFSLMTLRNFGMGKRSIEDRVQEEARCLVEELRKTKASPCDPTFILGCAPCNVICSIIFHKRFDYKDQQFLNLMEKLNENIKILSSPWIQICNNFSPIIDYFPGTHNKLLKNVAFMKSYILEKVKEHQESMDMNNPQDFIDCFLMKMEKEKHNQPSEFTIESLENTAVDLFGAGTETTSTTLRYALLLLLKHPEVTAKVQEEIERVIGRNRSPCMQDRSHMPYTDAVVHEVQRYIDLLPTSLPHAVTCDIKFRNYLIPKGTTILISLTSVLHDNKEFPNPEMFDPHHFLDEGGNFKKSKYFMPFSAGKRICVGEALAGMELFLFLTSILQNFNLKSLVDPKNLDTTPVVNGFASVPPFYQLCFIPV
Test: CYP2C9 inhibition in human liver microsomes
Assay type: in vitro ADME
quantity_kind: pIC50
Give only the number. pIC50 is defined as minus log10 of concentration in molar units.

Any idea what its pIC50 is? The compound is CC(O)c1cc(C(=O)N[C@@H](C)Cn2ccc(-c3ccc(C#N)c(Cl)c3)n2)[nH]n1 (stereo partly shown) [Darolutamide, darolutamide]
4.52

----------
Molecular target: OCT1 (Homo sapiens, UniProt O15245)
Sequence (O15245 1-554): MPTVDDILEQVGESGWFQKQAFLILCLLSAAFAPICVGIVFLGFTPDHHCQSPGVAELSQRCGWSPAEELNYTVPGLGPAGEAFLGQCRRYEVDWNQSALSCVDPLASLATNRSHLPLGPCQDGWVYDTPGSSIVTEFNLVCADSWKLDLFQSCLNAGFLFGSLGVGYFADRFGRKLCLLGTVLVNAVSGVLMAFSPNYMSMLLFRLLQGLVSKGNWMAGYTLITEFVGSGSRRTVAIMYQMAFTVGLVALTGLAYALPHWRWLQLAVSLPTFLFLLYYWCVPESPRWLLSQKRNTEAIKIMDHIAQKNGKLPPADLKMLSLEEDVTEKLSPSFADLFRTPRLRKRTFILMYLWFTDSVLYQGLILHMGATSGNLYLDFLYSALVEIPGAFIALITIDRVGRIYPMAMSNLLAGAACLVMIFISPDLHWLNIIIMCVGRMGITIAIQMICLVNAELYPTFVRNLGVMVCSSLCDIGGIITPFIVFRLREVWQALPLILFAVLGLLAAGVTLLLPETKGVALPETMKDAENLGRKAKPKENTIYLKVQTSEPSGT
Assay: OCT1 uptake inhibition in transfected HEK cells
Type: in vitro ADME
Conditions: read-out: IC50, OCT1; HEK cells; substrate 3H-MPP+, reference decynium 22
quantity_kind: IC50

Any idea what its IC50 is? The compound is CC(=O)c1cc(C(=O)N[C@@H](C)Cn2ccc(-c3ccc(C#N)c(Cl)c3)n2)[nH]n1 [Keto-darolutamide, keto-darolutamide]
> 10 µM
